Recorded values, source patent US6191256A.

Target: rFVIII (Homo sapiens, UniProt P00451)
Sequence (P00451 20-2351): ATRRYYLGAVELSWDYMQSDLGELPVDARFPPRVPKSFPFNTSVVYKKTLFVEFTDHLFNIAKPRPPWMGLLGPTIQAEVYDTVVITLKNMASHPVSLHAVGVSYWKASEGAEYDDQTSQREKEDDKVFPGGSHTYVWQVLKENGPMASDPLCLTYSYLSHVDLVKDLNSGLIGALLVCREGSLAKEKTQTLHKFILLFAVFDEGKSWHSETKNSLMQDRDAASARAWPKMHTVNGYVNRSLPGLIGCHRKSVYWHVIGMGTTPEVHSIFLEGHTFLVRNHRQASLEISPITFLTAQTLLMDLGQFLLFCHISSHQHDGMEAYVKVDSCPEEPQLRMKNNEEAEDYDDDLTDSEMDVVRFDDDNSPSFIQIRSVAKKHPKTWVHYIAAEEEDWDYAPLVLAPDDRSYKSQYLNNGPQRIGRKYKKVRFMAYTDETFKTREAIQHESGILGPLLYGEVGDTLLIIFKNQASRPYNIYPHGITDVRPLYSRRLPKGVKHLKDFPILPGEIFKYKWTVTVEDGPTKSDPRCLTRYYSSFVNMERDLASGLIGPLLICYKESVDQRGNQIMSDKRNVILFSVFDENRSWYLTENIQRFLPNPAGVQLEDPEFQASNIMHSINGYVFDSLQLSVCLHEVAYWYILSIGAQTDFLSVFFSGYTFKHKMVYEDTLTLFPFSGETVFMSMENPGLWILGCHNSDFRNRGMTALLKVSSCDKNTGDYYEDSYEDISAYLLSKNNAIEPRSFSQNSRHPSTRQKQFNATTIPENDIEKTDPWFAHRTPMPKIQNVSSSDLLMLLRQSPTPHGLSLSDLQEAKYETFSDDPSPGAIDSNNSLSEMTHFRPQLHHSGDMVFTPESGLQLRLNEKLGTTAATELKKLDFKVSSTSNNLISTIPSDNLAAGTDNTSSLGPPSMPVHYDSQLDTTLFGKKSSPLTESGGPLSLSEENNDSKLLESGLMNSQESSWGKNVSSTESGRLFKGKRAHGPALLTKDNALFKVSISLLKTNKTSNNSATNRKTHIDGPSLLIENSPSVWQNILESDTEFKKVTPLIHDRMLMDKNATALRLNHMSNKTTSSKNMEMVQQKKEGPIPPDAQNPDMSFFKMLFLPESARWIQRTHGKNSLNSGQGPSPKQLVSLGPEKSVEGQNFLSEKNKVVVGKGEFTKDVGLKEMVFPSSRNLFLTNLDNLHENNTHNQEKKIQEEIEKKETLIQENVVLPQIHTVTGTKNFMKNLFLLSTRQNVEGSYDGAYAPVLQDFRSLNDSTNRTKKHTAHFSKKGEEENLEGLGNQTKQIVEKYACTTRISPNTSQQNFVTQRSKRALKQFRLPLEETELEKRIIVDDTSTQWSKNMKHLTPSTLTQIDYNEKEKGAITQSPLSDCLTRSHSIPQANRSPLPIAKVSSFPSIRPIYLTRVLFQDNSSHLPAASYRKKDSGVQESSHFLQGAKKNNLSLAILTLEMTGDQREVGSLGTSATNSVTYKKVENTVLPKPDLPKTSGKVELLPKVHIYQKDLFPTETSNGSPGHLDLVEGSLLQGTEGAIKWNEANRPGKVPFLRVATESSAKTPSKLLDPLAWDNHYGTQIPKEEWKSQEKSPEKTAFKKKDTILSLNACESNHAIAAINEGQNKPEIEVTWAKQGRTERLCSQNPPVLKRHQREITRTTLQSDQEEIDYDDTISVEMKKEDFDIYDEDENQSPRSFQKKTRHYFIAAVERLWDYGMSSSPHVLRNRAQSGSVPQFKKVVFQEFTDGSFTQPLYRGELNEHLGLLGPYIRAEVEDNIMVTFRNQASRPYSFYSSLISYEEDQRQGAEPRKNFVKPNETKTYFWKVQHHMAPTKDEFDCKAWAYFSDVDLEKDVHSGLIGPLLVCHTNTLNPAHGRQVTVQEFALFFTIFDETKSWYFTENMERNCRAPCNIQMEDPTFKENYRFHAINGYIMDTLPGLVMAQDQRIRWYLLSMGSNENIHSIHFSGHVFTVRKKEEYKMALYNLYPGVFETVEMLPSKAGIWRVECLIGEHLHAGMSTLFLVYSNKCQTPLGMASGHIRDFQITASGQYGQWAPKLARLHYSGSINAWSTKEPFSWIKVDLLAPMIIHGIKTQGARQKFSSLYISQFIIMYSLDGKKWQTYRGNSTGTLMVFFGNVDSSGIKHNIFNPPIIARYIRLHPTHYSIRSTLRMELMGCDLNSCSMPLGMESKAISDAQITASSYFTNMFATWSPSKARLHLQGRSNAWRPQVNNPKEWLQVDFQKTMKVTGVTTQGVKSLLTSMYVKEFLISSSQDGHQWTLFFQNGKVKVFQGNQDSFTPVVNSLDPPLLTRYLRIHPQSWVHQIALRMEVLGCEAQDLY
Sequence (P00451 1668-2351 limits assumed): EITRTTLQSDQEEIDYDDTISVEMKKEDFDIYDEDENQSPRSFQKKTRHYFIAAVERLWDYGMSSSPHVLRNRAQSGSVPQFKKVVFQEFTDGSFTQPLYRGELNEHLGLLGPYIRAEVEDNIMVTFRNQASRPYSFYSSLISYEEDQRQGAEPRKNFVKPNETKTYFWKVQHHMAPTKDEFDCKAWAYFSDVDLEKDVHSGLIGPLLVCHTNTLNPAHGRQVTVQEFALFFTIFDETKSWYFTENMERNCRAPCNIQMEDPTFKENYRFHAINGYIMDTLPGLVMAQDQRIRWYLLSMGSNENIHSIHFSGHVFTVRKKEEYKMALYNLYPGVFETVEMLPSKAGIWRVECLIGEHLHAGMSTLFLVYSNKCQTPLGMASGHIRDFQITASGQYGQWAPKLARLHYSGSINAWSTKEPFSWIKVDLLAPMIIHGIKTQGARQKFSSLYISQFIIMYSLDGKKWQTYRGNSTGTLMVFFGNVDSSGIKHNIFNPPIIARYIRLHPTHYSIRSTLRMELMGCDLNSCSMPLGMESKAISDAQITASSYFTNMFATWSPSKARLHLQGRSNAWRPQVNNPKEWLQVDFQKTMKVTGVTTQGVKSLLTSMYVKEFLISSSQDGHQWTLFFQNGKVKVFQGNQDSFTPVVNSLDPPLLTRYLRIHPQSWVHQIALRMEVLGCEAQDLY
Assay: confirmatory binding assay in filtration plate format using 14C-rFVIII
Settings: Table 3; 14C-rFVIII 20 nM in PPF, 5 mg beads
parameter: 0.5M CaCl2 % total (%)
Please give a number only; it is taken to be in %.

Example cases with answers are listed next.
{"columns": ["substance", "system_tested", "value_unit", "0.5M CaCl2 % total"],
 "data": [
  ["5 (LNWKYG) [compound 5]", "rFVIII (Homo sapiens, UniProt P00451)", "%", 86],
  ["16 (WRRHRY) [compound 16]", "rFVIII (Homo sapiens, UniProt P00451)", "%", 21],
  ["2 (RNPPNN) [compound 2]", "rFVIII (Homo sapiens, UniProt P00451)", "%", 86],
  ["3 (YVQGLW) [compound 3]", "rFVIII (Homo sapiens, UniProt P00451)", "%", 74],
  ["17 (FYRFWN) [compound 17]", "rFVIII (Homo sapiens, UniProt P00451)", "%", 17],
  ["18 (WLWSHN) [compound 18]", "rFVIII (Homo sapiens, UniProt P00451)", "%", 25]
]}

Now examine the next entry.
Quickly give me recorded 0.5M CaCl2 % total for 7 (IRFYSE) [compound 7]
85

---

Target: rFVIII (Homo sapiens)
Assay: confirmatory binding assay in filtration plate format using 14C-rFVIII
Details: Table 4; 14C-rFVIII 30 nM in PPF, 5 mg beads
In plain terms, low 0.5M CaCl2 % total, meaning strictly below 90%, gives yes (1), and everything else gives no (0).

Take a look at these entries with their results.
{"columns": ["substance", "class_label"],
 "data": [
  ["15 (VYGVGG) [compound 15]", "no (0)"],
  ["11 (NAIFQW) [compound 11]", "yes (1)"]
]}

With those in mind, consider the next substance.
Answer whether the substance 21 (HFQIFG) [compound 21] has 0.5M CaCl2 % total strictly less than 90%
yes (1)

---

Target: rFVIII (Homo sapiens, UniProt P00451)
Experiment: rFVIII activity recovery from peptide columns by chromogenic substrate assay (COATEST)
Format: biochemical
Settings: Table 8
Assign y whenever Flow through % total does not fall below 2%; assign n whenever it does.

{"columns": ["substance", "system_tested", "class_label"],
 "data": [
  ["20 (WHHHRG) [compound 20]", "rFVIII (Homo sapiens, UniProt P00451)", "n"],
  ["14 (EPRVIG) [compound 14]", "rFVIII (Homo sapiens, UniProt P00451)", "y"],
  ["22 (FVFLVR) [compound 22]", "rFVIII (Homo sapiens, UniProt P00451)", "n"]
]}

Is Flow through % total at least 2%? Consider 11 (NAIFQW) [compound 11]
y

Is Flow through % total at least 2%? Consider 9 (FALPGR) [compound 9]
n

Is Flow through % total at least 2%? Consider 12 (QRLIQF) [compound 12]
n

Is Flow through % total at least 2%? Consider 21 (HFQIFG) [compound 21]
n

Is Flow through % total at least 2%? Consider 10 (AFVRSL) [compound 10]
n

Is Flow through % total at least 2%? Consider 15 (VYGVGG) [compound 15]
y

---

Biological target: rFVIII (Homo sapiens)
Test: confirmatory binding assay in filtration plate format using 14C-rFVIII
Settings: Table 4; remaining on beads after washes; 14C-rFVIII 30 nM
beads dpm overview
Please give a number only; it is taken to be in dpm.

Example cases with answers are listed next.
{"columns": ["substance", "system_tested", "parameter", "value_unit", "endpoint_value"],
 "data": [
  ["10 (AFVRSL) [compound 10]", "rFVIII (Homo sapiens)", "beads dpm", "dpm", 85],
  ["19 (FHFGLQ) [compound 19]", "rFVIII (Homo sapiens)", "beads dpm", "dpm", 382],
  ["14 (EPRVIG) [compound 14]", "rFVIII (Homo sapiens)", "beads dpm", "dpm", 60],
  ["9 (FALPGR) [compound 9]", "rFVIII (Homo sapiens)", "beads dpm", "dpm", 68]
]}

Quickly give me recorded beads dpm for 13 (KAQETW) [compound 13]
77

Quickly give me recorded beads dpm for 21 (HFQIFG) [compound 21]
554

Quickly give me recorded beads dpm for 22 (FVFLVR) [compound 22]
2658

Quickly give me recorded beads dpm for 15 (VYGVGG) [compound 15]
53

---

Target: rFVIII (Homo sapiens)
Test: confirmatory binding assay in filtration plate format using 14C-rFVIII
Details: Table 4; 14C-rFVIII 30 nM in PPF, 5.0 × 10^15 dpm/mole, 5 mg beads, 5° C.
Assign t whenever 0.5M CaCl2 dpm does not fall below 700 dpm; assign f whenever it does.

Take a look at these entries with their results.
{"columns": ["substance", "class_label"],
 "data": [
  ["13 (KAQETW) [compound 13]", "t"],
  ["22 (FVFLVR) [compound 22]", "f"],
  ["20 (WHHHRG) [compound 20]", "f"],
  ["14 (EPRVIG) [compound 14]", "t"]
]}

Is 0.5M CaCl2 dpm at least 700 dpm? Consider 19 (FHFGLQ) [compound 19]
f

Is 0.5M CaCl2 dpm at least 700 dpm? Consider 21 (HFQIFG) [compound 21]
t

Is 0.5M CaCl2 dpm at least 700 dpm? Consider 9 (FALPGR) [compound 9]
t

Is 0.5M CaCl2 dpm at least 700 dpm? Consider 15 (VYGVGG) [compound 15]
t

Is 0.5M CaCl2 dpm at least 700 dpm? Consider 11 (NAIFQW) [compound 11]
t

Is 0.5M CaCl2 dpm at least 700 dpm? Consider 10 (AFVRSL) [compound 10]
t

Is 0.5M CaCl2 dpm at least 700 dpm? Consider 12 (QRLIQF) [compound 12]
t

---

Target: rFVIII (Homo sapiens)
Assay: confirmatory binding assay in filtration plate format using 14C-rFVIII
Conditions: Table 4; remaining on beads after washes; 14C-rFVIII 30 nM
beads dpm overview
Don't forget the unit after the number, please.

{"columns": ["substance", "beads dpm"],
 "data": [
  ["20 (WHHHRG) [compound 20]", "1300 dpm"],
  ["11 (NAIFQW) [compound 11]", "641 dpm"]
]}

Quickly give me recorded beads dpm for 12 (QRLIQF) [compound 12]
95 dpm

---

Biological target: rFVIII (Homo sapiens, UniProt P00451)
Assay: column format binding assay, rFVIII mass per fraction by sandwich capture ELISA for the light chain
Settings: Table 6; 10,000 ng rFVIII in 1:10 PPF injected, 5° C.
parameter: Flow through ng (ng)
Please give a number only; it is taken to be in ng.

{"columns": ["substance", "value_unit", "endpoint_value"],
 "data": [
  ["10 (AFVRSL) [compound 10]", "ng", 0],
  ["9 (FALPGR) [compound 9]", "ng", 0],
  ["21 (HFQIFG) [compound 21]", "ng", 0],
  ["19 (FHFGLQ) [compound 19]", "ng", 0]
]}

Quickly give me recorded Flow through ng for 12 (QRLIQF) [compound 12]
0

Quickly give me recorded Flow through ng for 15 (VYGVGG) [compound 15]
3572

Quickly give me recorded Flow through ng for 22 (FVFLVR) [compound 22]
0

---

Target: rFVIII (Homo sapiens, UniProt P00451)
Experiment: confirmatory binding assay in filtration plate format using 14C-rFVIII
Conditions: Table 3; 14C-rFVIII 20 nM in PPF, 3.0 × 10^15 DPM/mole, 5 mg beads, 5° C.
In plain terms, low 0.5M CaCl2 dpm, meaning strictly below 2000 dpm, gives 1 (yes), and everything else gives 0 (no).

Take a look at these entries with their results.
{"columns": ["substance", "class_label"],
 "data": [
  ["16 (WRRHRY) [compound 16]", "1 (yes)"],
  ["5 (LNWKYG) [compound 5]", "0 (no)"],
  ["6 (HYWFYK) [compound 6]", "0 (no)"]
]}

Answer whether the substance 18 (WLWSHN) [compound 18] has 0.5M CaCl2 dpm strictly less than 2000 dpm
1 (yes)

Answer whether the substance 2 (RNPPNN) [compound 2] has 0.5M CaCl2 dpm strictly less than 2000 dpm
0 (no)

Answer whether the substance 3 (YVQGLW) [compound 3] has 0.5M CaCl2 dpm strictly less than 2000 dpm
1 (yes)

Answer whether the substance 7 (IRFYSE) [compound 7] has 0.5M CaCl2 dpm strictly less than 2000 dpm
0 (no)

Answer whether the substance 4 (FRPHWA) [compound 4] has 0.5M CaCl2 dpm strictly less than 2000 dpm
0 (no)

Answer whether the substance 17 (FYRFWN) [compound 17] has 0.5M CaCl2 dpm strictly less than 2000 dpm
1 (yes)

Answer whether the substance 1 (KPNPLA) [compound 1] has 0.5M CaCl2 dpm strictly less than 2000 dpm
0 (no)
